Entry source: patent US20070117743A1

Reported GI50 values are given for each entry in this list.
Tested on: SK-BR-3
Assay: SRB colorimetric assay of cell growth and viability, SK-BR-3
Type: cell-based, human
Settings: SK-BR-3; 48 hours exposure
Description: The finality of this assay is to interrupt the growth of a “in vitro” tumor cell culture by means a continued exhibition of the cells to the sample to be testing. […] Cells are seeded in 96 well microtiter plates, at 5×10^3 cells per well in aliquots of 195 μL medium, and they are allowed to attach to the plate surface by growing in drug free medium for 18 hours. […] Optical densities are read on a automated spectrophotometric plate reader at a single wavelength of 490 nm. […]
Where a SMILES comes first, the peptide text is derived from it. Bridges are numbered along the chain shown (N, C = ends). [ ]: non-standard residue; d: D form. The star is where a group is joined. d(aIle) = CC[C@H](C)[C@@H](N)C(=O)O; d(aThr) = C[C@@H](O)[C@@H](N)C(=O)O; Hexanoyl(5-Me) = CC(C)CCCC(=O)*; Phg = N[C@H](C(=O)O)c1ccccc1; Orn = NCCC[C@H](N)C(=O)O; Dhb = C/C=C(\N)C(=O)O

{"compound": "C/C=C1\\NC(=O)[C@H](Cc2ccc(F)c(F)c2)NC(=O)[C@@H](C(C)C)NC(=O)[C@@H]([C@@H](C)CC)NC(=O)[C@H](NC(=O)[C@H](NC(=O)[C@H](CCCN)NC(=O)[C@H]2CCCN2C(=O)[C@H](NC(=O)[C@@H](NC(=O)[C@@H](NC(=O)[C@H](NC(=O)CCCC(C)C)C(C)C)[C@@H](C)O)C(C)C)C(C)C)[C@@H](C)CC)[C@@H](C)OC(=O)[C@H](C(C)C)NC1=O [Compound 84, [Phe(3,4-F2)^3]-KF]", "system.name": "SK-BR-3", "GI50": "27.3 nM"}
{"compound": "C/C=C1\\NC(=O)[C@H](c2ccccc2)NC(=O)[C@@H](C(C)C)NC(=O)[C@@H]([C@@H](C)CC)NC(=O)[C@H](NC(=O)[C@H](NC(=O)[C@H](CCCN)NC(=O)[C@H]2CCCN2C(=O)[C@H](NC(=O)[C@@H](NC(=O)[C@@H](NC(=O)[C@H](NC(=O)CCCC(C)C)C(C)C)[C@@H](C)O)C(C)C)C(C)C)[C@@H](C)CC)[C@@H](C)OC(=O)[C@H](C(C)C)NC1=O [Compound 87, [Phg^3]-KF] ({Hexanoyl(5-Me)}-[dV]TV[dV][dP][Orn][d(aIle)][d(aThr)][d(aIle)][dV][Phg][Dhb]V; ester 8-C)", "system.name": "SK-BR-3", "GI50": "748 nM"}
